# STUDY_SYSTEM: NS5B from the BK strain (genotype 1b) (Hepatitis C virus genotype 1b)
# Construct: NS5B from the BK strain (genotype 1b) is expressed in E. coli as a protein in which the 21 C-terminal amino acids are replaced; made in house; host or cells: E. coli
# Sequence (P26663 2420-2989): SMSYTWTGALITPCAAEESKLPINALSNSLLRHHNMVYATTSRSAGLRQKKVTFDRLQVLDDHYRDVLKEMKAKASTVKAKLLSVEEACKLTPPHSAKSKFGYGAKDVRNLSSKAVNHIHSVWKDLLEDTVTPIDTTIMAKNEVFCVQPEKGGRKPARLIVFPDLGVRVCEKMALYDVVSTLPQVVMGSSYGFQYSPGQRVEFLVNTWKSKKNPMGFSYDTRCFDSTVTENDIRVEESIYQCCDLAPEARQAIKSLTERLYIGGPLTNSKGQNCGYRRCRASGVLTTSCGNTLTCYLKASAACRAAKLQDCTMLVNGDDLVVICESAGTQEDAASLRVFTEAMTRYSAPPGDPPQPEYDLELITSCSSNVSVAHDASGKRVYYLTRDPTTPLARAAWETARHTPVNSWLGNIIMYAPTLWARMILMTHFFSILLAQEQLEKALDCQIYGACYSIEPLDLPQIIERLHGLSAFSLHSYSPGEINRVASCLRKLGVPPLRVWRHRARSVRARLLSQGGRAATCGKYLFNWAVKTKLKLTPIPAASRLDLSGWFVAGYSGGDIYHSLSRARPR
# PROTOCOL_DETAILS: Hepatitis C polymerase inhibition, NS5B BK strain, 33P-GTP filter assay
# Assay type: biochemical
# CONDITION_LABEL: Table 1A; NS5B BK strain; read-out: HCV pol BK IC50
Overview of recorded pIC50 for various compounds
Recall that pIC50 is obtained by taking minus log10 of the concentration measured in molar.

Recorded pIC50, per entry:
{"COMPOUND": "CCCC1(CC(=O)O)OCCc2c1[nH]c1c(F)ccc(Cl)c21 (stereo not drawn)", "pIC50": 6.13}
{"COMPOUND": "CCCC1(CC(=O)O)OCC(C)c2c1[nH]c1c(Cl)ccc(Cl)c21 (stereo not drawn)", "pIC50": 5.15}
{"COMPOUND": "Cc1cc(F)c2[nH]c3c(c2c1C#N)CCOC3(CC(=O)O)c1ccc(C(=O)O)cc1 (stereo not drawn)", "pIC50": 5.77}
{"COMPOUND": "CCCC1(CC(=O)O)OCCc2c1[nH]c1c(C)ccc(F)c21 (stereo not drawn)", "pIC50": 5.85}

Problem: Short answer please: pIC50, NS5B from the BK strain (genotype 1b) (Hepatitis C virus genotype 1b), entry CCCC1(CC(=O)O)OCCc2c1[nH]c1c(F)ccc(I)c21 (stereo not drawn)
Solution: 6.49

All values here come from patent US7217730B2.
